- target_under_test: Tyrosyl-DNA phosphodiesterase 2 (Homo sapiens)
- Sequence (O95551 whole entry): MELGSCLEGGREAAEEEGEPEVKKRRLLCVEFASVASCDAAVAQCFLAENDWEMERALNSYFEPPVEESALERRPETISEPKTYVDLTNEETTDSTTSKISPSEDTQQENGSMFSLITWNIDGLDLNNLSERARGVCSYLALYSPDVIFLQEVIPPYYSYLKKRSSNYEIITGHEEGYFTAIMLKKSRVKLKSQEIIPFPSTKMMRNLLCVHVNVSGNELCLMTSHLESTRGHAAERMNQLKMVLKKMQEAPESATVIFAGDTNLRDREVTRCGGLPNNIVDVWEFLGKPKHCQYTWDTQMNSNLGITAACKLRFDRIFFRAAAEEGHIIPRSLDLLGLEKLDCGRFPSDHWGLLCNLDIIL
- procedure_details: Inhibition of human TDP2 expressed in DT40 cells (TDP2-knockout) using 18-mer single stranded oligonucleotide DNA as substrate incubated for 15 mins by PAGE assay
pIC50: −log10 of the molar value.
Use fulfilled when the recorded pIC50 is no lower than 5; use not fulfilled when it is lower.

In [3]: df
Out[3]:
                       chemical_structure    class_label
0         O=C1Cc2cc(-c3ccccc3)ccc2C(=O)N1  not fulfilled
1     O=C1Cc2cc(-c3cccc(Cl)c3)ccc2C(=O)N1      fulfilled
2  O=C1Cc2cc(-c3ccc(F)c(Cl)c3)ccc2C(=O)N1      fulfilled

Exam item: Does pIC50 meet or surpass 5 for O=C1Cc2cc(-c3cnc4ccccc4c3)ccc2C(=O)N1 ?
Marked response: not fulfilled

Exam item: Lookup O=C1Cc2cc(-c3ccco3)ccc2C(=O)N1
Marked response: not fulfilled

---

- target_under_test: Tyrosyl-DNA phosphodiesterase 2 (Homo sapiens)
- Sequence (O95551 whole entry): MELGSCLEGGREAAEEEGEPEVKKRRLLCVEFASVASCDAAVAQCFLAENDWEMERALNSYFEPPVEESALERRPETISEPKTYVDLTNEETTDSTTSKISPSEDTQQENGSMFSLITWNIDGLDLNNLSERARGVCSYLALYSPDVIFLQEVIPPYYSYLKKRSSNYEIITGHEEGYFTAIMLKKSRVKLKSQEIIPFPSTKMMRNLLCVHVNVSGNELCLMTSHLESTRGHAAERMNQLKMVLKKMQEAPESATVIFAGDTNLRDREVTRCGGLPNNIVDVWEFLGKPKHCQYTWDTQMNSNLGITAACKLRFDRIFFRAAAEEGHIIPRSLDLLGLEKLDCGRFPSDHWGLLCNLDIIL
- procedure_details: Inhibition of recombinant human TDP2 using 18-mer single stranded oligonucleotide DNA as substrate incubated for 15 mins by PAGE assay
readout_kind: IC50

>>> df
         chemical_structure  readout_kind  observed_value
0  O=C1Cc2c(Br)cccc2C(=O)N1          IC50         > 37 µM

Quick batch: IC50 for everything below.
1. O=C1NC(=O)c2ccc(Br)c3cccc1c23
2. Nc1cccc(-c2ccc3c(c2)C(=O)NC(=O)C3)c1

Marked response:
> 111 µM
> 111 µM

---

- target_under_test: Tyrosyl-DNA phosphodiesterase 2 (Homo sapiens, UniProt O95551)
- procedure_details: Inhibition of recombinant human TDP2 using 18-mer single stranded oligonucleotide DNA as substrate incubated for 15 mins by PAGE assay
readout_kind: IC50 (µM)
Give bare numbers, in µM.

                    chemical_structure  readout_kind  observed_value
0  O=C1Cc2ccc(-c3ccc(Br)cc3)cc2C(=O)N1          IC50             7.1
1             O=C1Cc2cc(Br)ccc2C(=O)N1          IC50              11

Quick batch: IC50 for everything below.
1. Nc1cccc(-c2ccc3c(c2)CC(=O)NC3=O)c1
2. O=C1Cc2cc(-c3cccnc3)ccc2C(=O)N1
3. O=C1Cc2ccc(-c3cccnc3)cc2C(=O)N1
4. COc1ccc(OC)c(-c2ccc3c(c2)CC(=O)NC3=O)c1
5. O=C1Cc2cc(-c3cccc(Br)c3)ccc2C(=O)N1
6. O=C1Cc2cc(-c3ccc(C(F)(F)F)cc3)ccc2C(=O)N1

Marked response:
[42, 16, 20, 16, 8, 3.2]

Quick batch: IC50 for everything below.
1. O=C1Cc2cc(-c3cnc4ccccc4c3)ccc2C(=O)N1
2. O=C1Cc2ccccc2C(=O)N1
3. O=C1Cc2ccc(C(=O)O)cc2C(=O)N1
4. O=C1Cc2cc(-c3ccco3)ccc2C(=O)N1

Marked response:
1: 9.3; 2: 25; 3: 3; 4: 10

Quick batch: IC50 for everything below.
1. CS(=O)(=O)Nc1cccc(-c2ccc3c(c2)CC(=O)NC3=O)c1
2. C=CC(=O)Nc1ccc(-c2ccc3c(c2)CC(=O)NC3=O)cc1
3. O=C1Cc2ccc(-c3ccco3)cc2C(=O)N1
4. O=C1Cc2cc(C(=O)c3cccc([N+](=O)[O-])c3)ccc2C(=O)N1
5. Nc1ccc(-c2ccc3c(c2)CC(=O)NC3=O)cc1
6. O=C1Cc2cc(-c3cccc(O)c3)ccc2C(=O)N1
7. NC(=O)c1cccc(-c2ccc3c(c2)CC(=O)NC3=O)c1
8. O=C1Cc2cccc(I)c2C(=O)N1

Marked response:
1: 18; 2: 10; 3: 13; 4: 11; 5: 36; 6: 13; 7: 16; 8: 7.5
